# System: M14
# ASSAY_NOTES: NCI tumour cell line growth inhibition, 48 h
Calls of active or inactive are those of the source. Rule as the data show it: active = GI50 up to about 1.1 µM and inactive = higher.

{"MOLECULE": "CC(C)NC(=O)OCCN=c1c2ccccc2ccc2ccccc12", "TARGET_OR_SYSTEM": "M14", "GI50": "36 µM (inactive)"}
{"MOLECULE": "COc1ccc(-c2cc(-c3ccc(Nc4ccnc5cc(Cl)ccc45)cc3)nc(N)c2C#N)cc1", "TARGET_OR_SYSTEM": "M14", "GI50": "> 100 µM (inactive)"}
{"MOLECULE": "CC(C)(C)C(=O)/C=C(\\OB(F)F)C(C)(C)C", "TARGET_OR_SYSTEM": "M14", "GI50": "> 100 µM (inactive)"}
{"MOLECULE": "c1ccc(CSCCC(SCc2ccccc2)SCc2ccccc2)cc1", "TARGET_OR_SYSTEM": "M14", "GI50": "> 10 µM (inactive)"}
{"MOLECULE": "COc1cc2c(cc1OC)C1=CCC(c3ccccc3)[N+]1(C)CC2 (stereo not given)", "TARGET_OR_SYSTEM": "M14", "GI50": "> 100 µM (inactive)"}
{"MOLECULE": "CC(=O)O[C@H]1CC[C@@]2(C)C(=CC[C@H]3[C@@H]4C[C@H](N5CCCC5)[C@H](OC(C)=O)[C@@]4(C)CC[C@@H]32)C1", "TARGET_OR_SYSTEM": "M14", "GI50": "18.2 µM (inactive)"}
{"MOLECULE": "Cc1ccc(C(=O)/C=C2\\Nc3ccccc3N=C2NC23CC4CC(CC(C4)C2)C3)cc1", "TARGET_OR_SYSTEM": "M14", "GI50": "> 10 µM (inactive)"}
{"MOLECULE": "COc1ccc(C2CC(=O)CC(c3ccc(OC)cc3)C23C(=O)NC(=O)NC3=O)cc1 (stereo not given)", "TARGET_OR_SYSTEM": "M14", "GI50": "52.5 µM (inactive)"}
{"MOLECULE": "C[C@H]1C[C@H]2[C@@H]3CCC4=CC(=O)C=C[C@]4(C)C3=CC[C@]2(C)[C@@]1(O)C(=O)CO", "TARGET_OR_SYSTEM": "M14", "GI50": "> 100 µM (inactive)"}
{"MOLECULE": "O=c1c2c3ccccc3[nH]c2c2cccc3c2n1CCC3", "TARGET_OR_SYSTEM": "M14", "GI50": "60.5 µM (inactive)"}

---

GI50 listing for selected molecules.
# Tested on: SK-OV-3
# ASSAY_NOTES: NCI tumour cell line growth inhibition, 48 h
Active and inactive are the calls of the source. Cut-off read from the data, not from the text of the source: active = GI50 up to about 1.1 µM and inactive = higher.
OBSERVABLE: GI50

{"MOLECULE": "CCOc1ccc(/C(Cl)=C(\\C=O)c2ccc(OC)c(OC)c2)cc1OCC", "MEASURED_RESULT": "> 100 µM (inactive)"}
{"MOLECULE": "Cc1c(C)n(-c2ccccc2)c2nc(S(C)(=O)=O)nc(S(C)(=O)=O)c12", "MEASURED_RESULT": "19.6 µM (inactive)"}
{"MOLECULE": "CN1C/C(=C\\c2ccccc2)C2=NN(C(N)=S)[C@H](c3ccccc3)[C@@H]2C1", "MEASURED_RESULT": "> 100 µM (inactive)"}
{"MOLECULE": "CCOc1cccc2sc(N)nc12", "MEASURED_RESULT": "> 100 µM (inactive)"}
{"MOLECULE": "COc1ccc2nc(NCN3C(=O)c4ccccc4C3=O)sc2c1", "MEASURED_RESULT": "> 100 µM (inactive)"}
{"MOLECULE": "Cc1cn(S(=O)(=O)c2ccccc2)c2c(OCc3ccccc3)cc(NC(=O)c3cc4cc([N+](=O)[O-])ccc4s3)cc12", "MEASURED_RESULT": "> 100 µM (inactive)"}
{"MOLECULE": "O=C(/C=C/c1ccc(OCC(=O)N2CCN(c3ccccc3)CC2)cc1)c1ccc(Cl)cc1", "MEASURED_RESULT": "27.5 µM (inactive)"}
{"MOLECULE": "CC1=NN=C(N)N/C1=C/C(Sc1ccc(Cl)cc1)c1cccs1 (centres undefined)", "MEASURED_RESULT": "12 µM (inactive)"}
{"MOLECULE": "CCOC12OC3=C(CC1CC1=C(CCC1=O)O2)C(=O)CC3 (centres undefined)", "MEASURED_RESULT": "> 100 µM (inactive)"}

---

# Tested on: SK-MEL-2
# ASSAY_NOTES: NCI tumour cell line growth inhibition, 48 h
The source made the active and inactive calls. Cut-off read from the data, not from the text of the source: active = GI50 up to about 1.1 µM and inactive = higher.
OBSERVABLE: GI50

{"COMPOUND": "COC1(OC)c2occc2C(=N)c2ccc(=O)oc21", "OBSERVABLE": "GI50", "MEASURED_RESULT": "> 100 µM (inactive)"}
{"COMPOUND": "Cc1c(C)n(-c2ccccc2)c2nc(S(C)(=O)=O)nc(S(C)(=O)=O)c12", "OBSERVABLE": "GI50", "MEASURED_RESULT": "2.07 µM (inactive)"}
{"COMPOUND": "Cc1ccc(NC(=O)CC/C(CC(=O)C(C)(C)C)=N\\Nc2ccc([N+](=O)[O-])cc2[N+](=O)[O-])cc1C", "OBSERVABLE": "GI50", "MEASURED_RESULT": "76.4 µM (inactive)"}
{"COMPOUND": "CN(CCN)[C@H](CSSC[C@@H](c1ccccc1O)N(C)CCN)c1ccccc1O", "OBSERVABLE": "GI50", "MEASURED_RESULT": "14.6 µM (inactive)"}
{"COMPOUND": "O=c1cc(-c2ccccc2)nc(/C=C(\\O)c2ccncc2)n1-c1ccccc1", "OBSERVABLE": "GI50", "MEASURED_RESULT": "> 100 µM (inactive)"}
{"COMPOUND": "Oc1ccc(-c2cc(-c3cc(-c4ccc(O)cc4)no3)on2)cc1", "OBSERVABLE": "GI50", "MEASURED_RESULT": "> 48 µM (inactive)"}
{"COMPOUND": "CC(=O)OC1CC2OC(Cc3ccccc32)O1 (stereo not drawn)", "OBSERVABLE": "GI50", "MEASURED_RESULT": "> 100 µM (inactive)"}
{"COMPOUND": "O=C(O)CNc1c2ccccc2nc2ccccc12", "OBSERVABLE": "GI50", "MEASURED_RESULT": "> 100 µM (inactive)"}
{"COMPOUND": "N#CCC(=O)N/N=C\\C(O)C(O)C(O)C(O)CO (stereo not drawn)", "OBSERVABLE": "GI50", "MEASURED_RESULT": "> 100 µM (inactive)"}
{"COMPOUND": "O=C(CCSC(CC(=O)c1ccc(Cl)cc1)c1ccc(Cl)cc1)Nc1ccc(Cl)cc1 (stereo not drawn)", "OBSERVABLE": "GI50", "MEASURED_RESULT": "15.5 µM (inactive)"}
{"COMPOUND": "Nc1nc(Cl)cc(/N=N\\c2ccccc2)n1", "OBSERVABLE": "GI50", "MEASURED_RESULT": "20.8 µM (inactive)"}
{"COMPOUND": "Cc1cc(C[C@H]2O[C@@H]3OC(C)(C)O[C@@H]3[C@H]3OC(C)(C)O[C@H]32)c2ccccc2n1", "OBSERVABLE": "GI50", "MEASURED_RESULT": "36 µM (inactive)"}
{"COMPOUND": "CN1C/C(=C\\c2ccccc2)C2=NN(C(N)=S)[C@H](c3ccccc3)[C@@H]2C1", "OBSERVABLE": "GI50", "MEASURED_RESULT": "> 100 µM (inactive)"}

---

# Tested on: COLO 205
# ASSAY_NOTES: NCI tumour cell line growth inhibition, 48 h
Activity calls are given as the source filed them. No stated cut-off is given here; in the data, active = GI50 up to about 1.1 µM and inactive = higher.
Classes used: 1 (active), 0 (inactive)

{"MOLECULE": "NC(=O)C(=O)N/N=C1\\C(=O)N(c2ccc(Cl)cc2Cl)C(=O)C1C(=O)Nc1ccc(Cl)cc1Cl (centres undefined)", "CLASS_ASSIGNMENT": 0}
{"MOLECULE": "NCCNc1ccc(NCCN)c2c1C(=O)c1c(O)ccc(O)c1C2=O", "CLASS_ASSIGNMENT": 1}
{"MOLECULE": "COc1ccc(C(=O)Nc2ccc(S(=O)(=O)NCC(=O)O)cc2)cc1", "CLASS_ASSIGNMENT": 0}
{"MOLECULE": "CC(=O)O[C@H]1CC[C@@]2(C)C(=CC[C@H]3[C@@H]4C[C@H](N5CCCC5)[C@H](OC(C)=O)[C@@]4(C)CC[C@@H]32)C1", "CLASS_ASSIGNMENT": 0}
{"MOLECULE": "C/C(=C\\CNc1ncnc2c1ncn2CCC#N)CO", "CLASS_ASSIGNMENT": 0}
{"MOLECULE": "CC1=NN(C(=O)CC(=O)Nc2cccc(Cl)c2)C(=O)C1/N=N/c1ccc(C(=O)O)cc1 (centres undefined)", "CLASS_ASSIGNMENT": 0}
{"MOLECULE": "Oc1cccc2ccc(SSc3ccc4cccc(O)c4n3)nc12", "CLASS_ASSIGNMENT": 0}
{"MOLECULE": "c1ccc2c(c1)nc1ccccn12", "CLASS_ASSIGNMENT": 0}
{"MOLECULE": "Cn1c(=O)n2n(c1=O)[C@@H](c1ccccc1)[C@H]2c1ccccc1", "CLASS_ASSIGNMENT": 0}
{"MOLECULE": "COC(=O)C1Cc2cccc(C)c2C1 (centres undefined)", "CLASS_ASSIGNMENT": 0}
{"MOLECULE": "CCOC(=O)C1(C#N)C(c2ccccc2)CC(O)(c2ccc([N+](=O)[O-])cc2)C(C(=O)c2ccc([N+](=O)[O-])cc2)C1c1ccccc1 (centres undefined)", "CLASS_ASSIGNMENT": 0}
{"MOLECULE": "O=c1c(C(c2cccc(C(c3c(O)oc4ccccc4c3=O)c3c(O)oc4ccccc4c3=O)c2)c2c(O)oc3ccccc3c2=O)c(O)oc2ccccc12", "CLASS_ASSIGNMENT": 0}
{"MOLECULE": "O=C1Nc2cccc3cc(NCC(O)CCl)cc1c23 (centres undefined)", "CLASS_ASSIGNMENT": 0}
{"MOLECULE": "Cc1ccc(Sc2ccc(C)cc2[N+](=O)[O-])c([N+](=O)[O-])c1", "CLASS_ASSIGNMENT": 0}
{"MOLECULE": "Cc1cn(S(=O)(=O)c2ccccc2)c2c(OCc3ccccc3)cc(NC(=O)c3cc4cc([N+](=O)[O-])ccc4s3)cc12", "CLASS_ASSIGNMENT": 0}
{"MOLECULE": "CCOC(=O)C1=C(C)NC(C)=C(C(=O)OCC)C1c1ccc(C)cc1", "CLASS_ASSIGNMENT": 0}
{"MOLECULE": "COc1ccccc1/N=N/c1c(-c2ccccc2)nn(C(=O)CC(=O)Nc2cccc(C)c2)c1-c1ccccc1", "CLASS_ASSIGNMENT": 0}
{"MOLECULE": "Cc1c(C)c2cc3c(=O)c(CCl)coc3c(C)c2oc1=O", "CLASS_ASSIGNMENT": 0}
{"MOLECULE": "O/N=C1/CC2(N3CCOCC3)C3CC/C(=N\\O)C2CC1(Cc1ccccc1)C3 (centres undefined)", "CLASS_ASSIGNMENT": 0}
{"MOLECULE": "CCn1c(=O)c2c3ccc(O)cc3[nH]c2c2ccc(O)cc21", "CLASS_ASSIGNMENT": 0}
{"MOLECULE": "COc1cc(CCc2cccnc2)cc(OC)c1OC", "CLASS_ASSIGNMENT": 0}
{"MOLECULE": "O=C(/C=C/c1ccc(O)c([N+](=O)[O-])c1)CC(=O)/C=C/c1ccc(O)c([N+](=O)[O-])c1", "CLASS_ASSIGNMENT": 0}
{"MOLECULE": "N#CC(c1ccc(Cl)cc1)c1cccc(Cl)n1 (centres undefined)", "CLASS_ASSIGNMENT": 0}
{"MOLECULE": "O=C1NC(=O)C(CC(C(=O)C(=O)Nc2ccccc2Cl)C(=O)c2ccc3ccccc3c2)C(=O)N1 (centres undefined)", "CLASS_ASSIGNMENT": 0}
{"MOLECULE": "O=C[C@@H](CO)O[C@H](C=O)n1cnc2c(=O)nc[nH]c21", "CLASS_ASSIGNMENT": 0}
{"MOLECULE": "CO/N=C(/C)c1cccc(Nc2nc3ccc(Cl)cc3c3[nH]c4ccccc4c23)c1", "CLASS_ASSIGNMENT": 0}
{"MOLECULE": "Cc1ccccc1NC(=O)C(=O)CC(=O)c1ccc([N+](=O)[O-])cc1", "CLASS_ASSIGNMENT": 0}
{"MOLECULE": "O=C1NC2CCCCC2N=C1CC(=O)c1ccc(Br)cc1 (centres undefined)", "CLASS_ASSIGNMENT": 0}
{"MOLECULE": "COc1cc(C2C(Cl)C(=O)N2NC(=O)Cc2ccccc2)ccc1O (centres undefined)", "CLASS_ASSIGNMENT": 0}
{"MOLECULE": "O=C(N/N=C/c1ccc([N+](=O)[O-])cc1)Nc1ccc(C(=O)O)cc1", "CLASS_ASSIGNMENT": 0}
{"MOLECULE": "COc1ccc(C2CC(=O)CC(c3ccc(OC)cc3)C23C(=O)NC(=O)NC3=O)cc1 (centres undefined)", "CLASS_ASSIGNMENT": 0}
{"MOLECULE": "COc1cc(/C=C2\\C[C@H]3[C@@H]4CCc5cc(OCCN6CCCC6)ccc5[C@H]4CC[C@]3(C)C2=O)cc(OC)c1OC", "CLASS_ASSIGNMENT": 0}
{"MOLECULE": "CCCCC/C(=N\\c1[nH]nnc1C(N)=O)OCC", "CLASS_ASSIGNMENT": 0}
{"MOLECULE": "Cc1ccc(NC(=O)NC23CC4CC(CC(F)(C4)C2)C3)cc1", "CLASS_ASSIGNMENT": 0}
